- Test system: Mycobacterium tuberculosis
- experiment.summary: Inhibitory activity against growth of Mycobacterium tuberculosis H37Rv Strain
- Format: functional
measured.quantity: MIC90

Provide measured MIC90 on Mycobacterium tuberculosis for "CCCCCCCCCCCCSc1ncnc2c1ncn2CC(=O)OCC" please.
0.78 µg/mL

Please tell me the measured MIC90 for "c1ccc(CSc2ncnc3[nH]cnc23)cc1" ; system: Mycobacterium tuberculosis.
> 12.5 µg/mL

Write MIC90 of "CCOC(=O)Cn1cnc2c(Sc3ccc(Cl)cc3)ncnc21" ; system used: Mycobacterium tuberculosis
> 6.25 µg/mL

Give the observed MIC90 of "CCOC(=O)Cn1cnc2c(SCc3cccc([N+](=O)[O-])c3C)nc(O)nc21" for Mycobacterium tuberculosis.
> 6.25 µg/mL

Enter recorded MIC90 with Mycobacterium tuberculosis for "CCCCCCCCCCSc1ncnc2c1ncn2CC(=O)Oc1ccccc1" here.
> 6.25 µg/mL

Provide measured MIC90 on Mycobacterium tuberculosis for "Cc1cccc(Sc2[nH]cnc3ncnc2-3)c1" please.
> 12.5 µg/mL
